Attribution: patent EP4603105A1

Test system: human lung cancer strain NCI-H441
Type: cell-based
Description: A test compound was dispensed into a U-bottom 384-well plate as 40 nL serially diluted dimethyl sulfoxide solutions using a liquid handler Echo (LABCYTE). […] This cell suspension was dispensed in an amount of 40 µL per well into a plate containing the test compound, and cultured at 37°C in a 5% carbon dioxide gas incubator. Four days later, 20 µL of CellTiter-Glo (registered trademark) (Promega) was added to each well and […] was measured. […]
endpoint name: pIC50
Field pIC50 (float): negative decimal logarithm of the concentration in molar.

C#CCN1CC(=O)N(C)[C@H]2C/C=C\CCN(C2=O)[C@@H](Cc2ccc(C(F)(F)F)cc2)C(=O)N(C)CC(=O)N[C@@H](CCc2cc(F)c(C(F)(F)F)c(F)c2)C(=O)N2C[C@H](OCC)C[C@H]2C(=O)NC2(CC(C)(C)C2)C(=O)N(C)[C@@H](C2CCCC2)C(=O)N(C)[C@H](C(=O)N(C)C)CC(=O)N(C)[C@@H](CCC)C(=O)N[C@@H]([C@@H](C)CC)C1=O [PP2103]    8.37

Consider now this further compound.
Query: Look up pIC50 for this compound: CCCOC[C@H]1C(=O)N[C@@H]([C@@H](C)CC)C(=O)N(C)CC(=O)N(C)[C@H]2C/C=C\CCN(C2=O)[C@@H](Cc2ccc(C)cc2)C(=O)N(C)CC(=O)N[C@@H](CCc2ccc(C(F)(F)F)c(OC)c2)C(=O)N2C[C@H](OCC)C[C@H]2C(=O)N(C)C2(CCC2)C(=O)N(C)[C@@H](C(CC)CC)C(=O)N(C)[C@H](C(=O)N(C)C)CC(=O)N1C [PP2323]
Result: 8.43

* * *

Below is a list of entries, each paired with its recorded pKd value.
test system: GDP-bound KRAS wild-type protein (Homo sapiens, UniProt P01116)
Sequence (P01116 1-188 isoform P01116-2): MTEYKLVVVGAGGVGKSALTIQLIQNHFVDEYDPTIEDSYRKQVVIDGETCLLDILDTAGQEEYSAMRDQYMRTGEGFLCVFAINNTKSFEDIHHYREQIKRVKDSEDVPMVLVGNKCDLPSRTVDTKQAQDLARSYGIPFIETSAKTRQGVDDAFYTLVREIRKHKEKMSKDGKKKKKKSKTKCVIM
test name: Binding to KRAS by surface plasmon resonance (SPR), dissociation constant KD
experimental parameters: Single Cycle Kinetics, 1:1 binding model
Protocol: Surface plasmon resonance was used to analyze the binding affinity of compounds for KRAS, NRAS, and HRAS. […] The resulting sensorgram was subjected to curve fitting based on a 1:1 binding model on Biacore Insight Evaluation Software or T200 Evaluation Software, and thereby the dissociation constant KD of each compound with respect to KRAS, NRAS, and HRAS was determined. […]
In plain terms, pKd is the concentration in mol/L turned into minus its base-10 logarithm.

CC[C@@H]1C[C@H]2C(=O)NC3(CCCC3)C(=O)N(C)[C@@H](C3CCCC3)C(=O)N(C)[C@H](C(=O)N(C)C)CC(=O)N(C)[C@@H](CC(C)C)C(=O)N[C@@H]([C@@H](C)CC)C(=O)N(C)CC(=O)N(C)[C@H]3C/C=C\CCN(C3=O)[C@@H](Cc3ccc(C)cc3)C(=O)N(C)CC(=O)N[C@@H](CCc3cc(F)c(C(F)(F)F)c(F)c3)C(=O)N2C1    9.64
CCO[C@@H]1C[C@H]2C(=O)NC3(CCC3)C(=O)N(C)[C@@H](C3CCCC3)C(=O)N(C)[C@H](C(=O)N(C)CC)CC(=O)N(C)[C@@H](C3CCC3)C(=O)N[C@@H]([C@@H](C)CC)C(=O)N(C)CC(=O)N(C)[C@H]3C/C=C\CCN(C3=O)[C@@H](Cc3ccc(C(F)(F)F)cc3)C(=O)N(C)CC(=O)N[C@@H](CCc3ccc(C(F)(F)F)c(OC)c3)C(=O)N2C1    9.96
CCO[C@@H]1C[C@H]2C(=O)NC3(CCC3)C(=O)N(C)[C@@H](C3CCCC3)C(=O)N(C)[C@H](C(=O)N(C)C)CC(=O)N(C)[C@@H](CC3CC3)C(=O)N[C@@H]([C@@H](C)CC)C(=O)N(C)CC(=O)N(C)[C@H]3C/C=C\CCN(C3=O)[C@@H](Cc3ccc(C(F)(F)F)cc3)C(=O)N(C)CC(=O)N[C@@H](CCc3ccc(C(F)(F)F)c(OC)c3)C(=O)N2C1    10.34
CCC[C@H]1C(=O)N[C@@H]([C@@H](C)CC)C(=O)N(C)CC(=O)N(C)[C@H]2C/C=C\CCN(C2=O)[C@@H](Cc2ccc(C)cc2)C(=O)N(C)CC(=O)N[C@@H](CCc2cc(F)c(C(F)(F)F)c(F)c2)C(=O)N2C[C@H](CC)C[C@H]2C(=O)NC2(CCCC2)C(=O)N(C)[C@@H](C2CCCC2)C(=O)N(C)[C@H](C(=O)N(C)C)CC(=O)N1C    9.64
CCO[C@@H]1C[C@H]2C(=O)NC3(CC(C)(C)C3)C(=O)N(C)[C@@H](C3CCCC3)C(=O)N(C)[C@@H](C(C)C)CC(=O)N(C)[C@@H](CC3CC3)C(=O)N[C@@H]([C@@H](C)CC)C(=O)N(C)CC(=O)N(C)[C@H]3C/C=C\CCN(C3=O)[C@@H](Cc3ccc(C(F)(F)F)cc3)C(=O)N(C)CC(=O)N[C@@H](CCc3cc(F)c(C(F)(F)F)c(F)c3)C(=O)N2C1    9.15

Please examine the following record next.
Query: Please report the recorded pKd for CC[C@H](C)[C@@H]1NC(=O)[C@H](CC)N(C)C(=O)C[C@@H](C(=O)N(C)C)N(C)C(=O)[C@H](C2CCCC2)N(C)C(=O)C2(CCCC2)NC(=O)[C@@H]2CCCN2C(=O)[C@H](CCc2cc(F)c(C(F)(F)F)c(F)c2)NC(=O)CN(C)C(=O)[C@H](Cc2ccc(C(F)(F)F)cc2)N2CC/C=C\C[C@@H](C2=O)N(C)C(=O)CN(C)C1=O .
Result: 9.92

* * *

Tested on: human lung cancer strain NCI-H441
Assay type: cell-based
Where a SMILES comes first, the peptide text is derived from it. Bridges are numbered along the chain shown (N, C = ends). [ ]: non-standard residue; d: D form. The star is where a group is joined. hPhe(3,5-F2-4-CF3) = N[C@@H](CCc1cc(F)c(C(F)(F)F)c(F)c1)C(=O)O; NPrPhe(4-CF3) = CCCN[C@@H](Cc1ccc(C(F)(F)F)cc1)C(=O)O; NMeGly(cPent) = CN[C@H](C(=O)O)C1CCCC1; Nva(3-Et) = CCC(CC)[C@H](N)C(=O)O; NMeD = CN[C@@H](CC(=O)O)C(=O)O; NMeL = CN[C@@H](CC(C)C)C(=O)O; Morpholide = C1CN(*)CCO1; Ac5c = NC1(C(=O)O)CCCC1; Aze = O=C(O)[C@@H]1CCN1; Sar = CNCC(=O)O
endpoint name: IC50 (nM)
API: value field is a number in nM; no unit string.

CCC[C@H]1C(=O)N[C@@H]([C@@H](C)CC)C(=O)N(C)CC(=O)N(C)[C@H]2C/C=C\CCN(C2=O)[C@@H](Cc2ccc(C(F)(F)F)cc2)C(=O)N(C)CC(=O)N[C@@H](CCc2ccc(Cl)c(C(F)(F)F)c2)C(=O)N2C[C@H](OCC)C[C@H]2C(=O)NC2(CC(C)(C)C2)C(=O)N(C)[C@@H](C(CC)CC)C(=O)N(C)[C@H](C(=O)N(C)C)CC(=O)N1C [PP2785]    10.5
CCCN1C(=O)[C@@H]2CCN2C(=O)CN(C)C(=O)[C@H](C(CC)CC)NC(=O)[C@H](CC(C)C)N(C)C(=O)C[C@@H](C(=O)N2CCOCC2)N(C)C(=O)[C@H](C2CCCC2)N(C)C(=O)C2(CCCC2)NC(=O)[C@@H]2CCCN2C(=O)[C@H](CCc2cc(F)c(C(F)(F)F)c(F)c2)NC(=O)CN(C)C(=O)[C@@H]1Cc1ccc(C(F)(F)F)cc1 [PP0804] ([NMeL][Nva(3-Et)][Sar][Aze][NPrPhe(4-CF3)][Sar][hPhe(3,5-F2-4-CF3)]P[Ac5c][NMeGly(cPent)][NMeD]-Morpholide; lactam N-11)    40.9

Query: What value of measured IC50 is listed for CCC[C@H]1C(=O)N[C@@H]([C@@H](C)CC)C(=O)N(C)CC(=O)N(C)[C@H]2C/C=C\CCN(C2=O)[C@@H](Cc2ccc(C)cc2)C(=O)N(C)CC(=O)N[C@@H](CCc2ccc(C(F)(F)F)c(OC)c2)C(=O)N2CC3(CC3)C[C@H]2C(=O)NC2(CC(C)(C)C2)C(=O)N(C)[C@@H](CC(F)(F)F)C(=O)N(C)[C@H](C(=O)N(C)C)CC(=O)N1C [PP3012] ?
Result: 74.8

* * *

pKd values by entry
test system: GDP-bound KRAS wild-type protein (Homo sapiens, UniProt P01116)
test name: Binding to KRAS by surface plasmon resonance (SPR), dissociation constant KD
experimental parameters: Single Cycle Kinetics
Method: Surface plasmon resonance was used to analyze the binding affinity of compounds for KRAS, NRAS, and HRAS. […] The resulting sensorgram was subjected to curve fitting based on a 1:1 binding model on Biacore Insight Evaluation Software or T200 Evaluation Software, and thereby the dissociation constant KD of each compound with respect to KRAS, NRAS, and HRAS was determined. […]
Keep it numeric: pKd is minus log10 of the concentration in mol/L.

Take a look at these entries with their results.
CCO[C@@H]1C[C@H]2C(=O)NC3(CC(C)(C)C3)C(=O)N(C)[C@@H](C3CCCC3)C(=O)N(C)[C@H](C(=O)N(C)CC)CC(=O)N(C)[C@@H]([C@@H](C)OC)C(=O)N[C@@H]([C@@H](C)CC)C(=O)N3CCC[C@H]3C(=O)N(C)[C@H]3C/C=C\CCN(C3=O)[C@@H](Cc3ccc(C(F)(F)F)cc3)C(=O)N(C)CC(=O)N[C@@H](CCc3ccc(C(F)(F)F)c(Cl)c3)C(=O)N2C1    8.96
CCC[C@H]1C(=O)N[C@@H](C2CCCC2)C(=O)N(C)CC(=O)N(C)[C@H]2C/C=C\CCN(C2=O)[C@@H](Cc2ccc(C)cc2)C(=O)N(C)CC(=O)N[C@@H](CCc2ccc(C(F)(F)F)c(Cl)c2)C(=O)N2CC3(CC3)C[C@H]2C(=O)NC2(CCC2)C(=O)N(C)[C@@H](C(CC)CC)C(=O)N(C)[C@H](C(=O)N(C)C)CC(=O)N1C    9.15

Query: Find the recorded pKd belonging to CCO[C@@H]1C[C@H]2C(=O)NC3(CC(C)(C)C3)C(=O)N(C)[C@@H](C3CCCC3)C(=O)N(C)[C@H](C(=O)N(C)C)CC(=O)N(C)[C@@H]([C@H](C)OC)C(=O)N[C@@H]([C@@H](C)CC)C(=O)N(C)CC(=O)N(C)[C@H]3C/C=C\CCN(C3=O)[C@@H](Cc3ccc(C(F)(F)F)cc3)C(=O)N(C)CC(=O)N[C@@H](CCc3ccc(C(F)(F)F)c(Cl)c3)C(=O)N2C1 and report it.
Result: 10.12

Query: Next molecule up: CCO[C@@H]1C[C@H]2C(=O)NC(C)(C)C(=O)N(C)[C@@H](C3CCCC3)C(=O)N(C)[C@H](C(=O)N(C)C)CC(=O)N(C)[C@@H](CC(C)C)C(=O)N[C@@H]([C@@H](C)CC)C(=O)N(C)CC(=O)N(C)[C@H]3C/C(F)=C\CCN(C3=O)[C@@H](Cc3ccc(C)cc3)C(=O)N(C)CC(=O)N[C@@H](CCc3cc(F)c(C(F)(F)F)c(F)c3)C(=O)N2C1
Result: 9.23
